The reported numbers originate from patent US9809578B2.

biological target: His-tagged recombinant human TrkA (Homo sapiens, UniProt P04629); construct: 6HIS tagged cytoplasmic domain from Invitrogen, Cat. No. PV3144; purchased Invitrogen PV3144; assay: TrkA LanthaScreen Eu Kinase Binding Assay
Sequence (P04629 440-796 limits assumed): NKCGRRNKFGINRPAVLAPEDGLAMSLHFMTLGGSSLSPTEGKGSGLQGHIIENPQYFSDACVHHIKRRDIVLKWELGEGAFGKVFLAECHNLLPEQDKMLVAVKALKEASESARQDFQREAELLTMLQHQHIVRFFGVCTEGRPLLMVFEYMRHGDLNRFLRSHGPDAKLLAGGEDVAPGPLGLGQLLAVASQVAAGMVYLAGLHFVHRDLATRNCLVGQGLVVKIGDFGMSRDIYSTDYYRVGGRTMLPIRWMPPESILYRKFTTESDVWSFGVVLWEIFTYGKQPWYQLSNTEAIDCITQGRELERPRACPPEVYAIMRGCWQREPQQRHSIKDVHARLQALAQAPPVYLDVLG
pIC50: −log10 of the molar value.
MEASURED_QUANTITY: pIC50

Request: Please report the recorded pIC50 for Cc1c(-c2cnn(C)c2)nn(-c2ccccc2)c1NC(=O)Nc1cc(C(F)(F)F)nn1-c1ccccc1 .
Result: > 7.00

---

Provide the recorded IC50 for the entries that follow.
Biological target: His-tagged recombinant human TrkA (Homo sapiens, UniProt P04629)
Construct: 6HIS tagged cytoplasmic domain from Invitrogen, Cat. No. PV3144; purchased Invitrogen PV3144
Experiment: TrkA LanthaScreen Eu Kinase Binding Assay
Settings: averaged IC50; LanthaScreen Eu kinase binding, TR-FRET; read-out: TrkA enzyme IC50
Protocol: TrkA binding activity was determined in a TrkA LanthaScreen™ Eu Kinase Binding Assay. […] Three fold serial dilutions of compounds of the invention in DMSO were added to a final percentage of 2% DMSO. […] The percent of control was calculated using a ratiometric emission factor. The IC50 values were determined by fitting a four parameter model to the percent of control data.

Request: Give His-tagged recombinant human TrkA (Homo sapiens, UniProt P04629) IC50 for Cc1c(-c2ccn(C)c(=O)c2)nn(-c2ccccc2)c1NC(=O)Nc1cc(C(F)(F)F)nn1-c1ccccc1
Result: < 100 nM

Request: Same read-out for Cc1c(-c2cnn(C)c2)nn(-c2ccccc2)c1NC(=O)Nc1cc(C2CC2(F)F)nn1-c1ccccc1 (stereo not shown) ?
Result: < 100 nM

Request: Cc1c(-c2cnn(C)c2)nn(-c2ccccc2)c1NC(=O)Nc1cc(C(C)C)nn1-c1ccccc1 ?
Result: 100 to 1000 nM

Request: Here is the next compound: Cc1c(-c2cnn(C)c2)nn(-c2ccccc2)c1NC(=O)Nc1cc(CC(F)(F)F)nn1-c1ccccc1
Result: 100 to 1000 nM

Request: Now this one: Cc1c(-c2cnn(C)c2)nn(-c2ccccc2)c1NC(=O)Nc1c(C)c(C(F)(F)F)nn1-c1ccccc1
Result: 100 to 1000 nM

Request: Cc1cc(NC(=O)Nc2c(C)c(-c3cnn(C)c3)nn2-c2ccccc2)n(-c2ccccc2)n1 ?
Result: 100 to 1000 nM

Request: And what about the compound Cc1c(-c2cnn(C)c2)nn(-c2ccccc2)c1NC(=O)Nc1cc(CC(F)(F)F)nn1-c1ccc(F)cc1 ?
Result: 100 to 1000 nM
